test system: MCF-7 cells; assay: CD44+/CD24- expression analysis, MCF-7; format: cell-based, human; settings: 24 h; 4m 1.0 mM, 4bt 0.8 mM, 4p 0.4 mM, 4bc 1.0 mM, 4x 0.8 mM, monastrol 1.0 mM
Here, each record is paired with measured CD44-/CD24- subpopulation, MCF-7 (mean ± SEM) data.
Property Name: CD44-/CD24- subpopulation, MCF-7 (mean ± SEM) (%)

Compound | Unit Abbrev | Reported
CCOC(=O)C1=C(C)NC(=S)NC1c1cccc(O)c1 (stereo not shown) [Monastrol, reference compound] | % | 1.64
CCOC(=O)C1=C(C)NC(=S)NC1c1ccccc1O (stereo not shown) [Compound 4p] | % | 2.83
CC(=O)C1=C(C)NC(=O)NC1c1ccccc1[N+](=O)[O-] (stereo not shown) [Compound 4x] | % | 2.45
CC1(C)CC(=O)C2=C(C1)NC(=S)NC2c1cccc(O)c1 (stereo not shown) [Compound 4bt, Dimethylenastron] | % | 3.09
